# assayed-target: Neuraminidase (Influenza A virus (A/Puerto Rico/8/1934(H1N1)), UniProt P03468)
# procedure-details: Inhibition of influenza A sialidase (neuraminidase)
pIC50: −log10 of the molar value.
measured-parameter: pIC50

INSERT INTO results (compound, recorded_measurement) VALUES
  ('CNC(=O)[C@@H]1OC(C(=O)O)=C[C@H](N=C(N)N)[C@H]1NC(C)=O', 5.15),
  ('CCCCN(CCCC)C(=O)[C@@H]1OC(C(=O)O)=C[C@H](N=C(N)N)[C@H]1NC(C)=O', 7.80),
  ('CC(=O)N[C@H]1[C@H]([C@H](O)[C@H](O)CO)OC(C(=O)O)=C[C@@H]1N', 6.52),
  ('CCCN(CCc1ccccc1)C(=O)[C@@H]1OC(C(=O)O)=C[C@H](N=C(N)N)[C@H]1NC(C)=O', 8.30),
  ('CC(=O)N[C@@H]1[C@@H](N)C=C(C(=O)O)O[C@H]1C(=O)NCCc1ccccc1', 4.92),
  ('CCN(CCc1ccccc1)C(=O)[C@@H]1OC(C(=O)O)=C[C@H](N)[C@H]1NC(C)=O', 8.30),
  ('CC(=O)N[C@@H]1[C@@H](N)C=C(C(=O)O)O[C@H]1C(=O)N(C)CCc1ccccc1', 6.49),
  ('CCCN(CCC)C(=O)[C@@H]1OC(C(=O)O)=C[C@H](N)[C@H]1NC(C)=O', 8.52),
  ('CCNC(=O)[C@@H]1OC(C(=O)O)=C[C@H](N)[C@H]1NC(C)=O', 4.89),
  ('CNC(=O)[C@@H]1OC(C(=O)O)=C[C@H](N)[C@H]1NC(C)=O', 3.72),
  ('CCCN(CCc1ccc(-c2ccccc2)cc1)C(=O)[C@@H]1OC(C(=O)O)=C[C@H](N)[C@H]1NC(C)=O', 8.52),
  ('CC(=O)N[C@@H]1[C@@H](N=C(N)N)C=C(C(=O)O)O[C@H]1C(=O)N(C)C', 7.60),
  ('CCN(CC)C(=O)[C@@H]1OC(C(=O)O)=C[C@H](N)[C@H]1NC(C)=O', 8.52),
  ('CCN(CC)C(=O)[C@@H]1OC(C(=O)O)=C[C@H](NC(=N)N)[C@H]1NC(C)=O', 9.00);
